Record form. Attribute: AC50. Fill in for each entry.
assayed.target: B2 bradykinin receptor (Homo sapiens, UniProt P30411); also: assay procedure not described here
Sequence (P30411 whole entry): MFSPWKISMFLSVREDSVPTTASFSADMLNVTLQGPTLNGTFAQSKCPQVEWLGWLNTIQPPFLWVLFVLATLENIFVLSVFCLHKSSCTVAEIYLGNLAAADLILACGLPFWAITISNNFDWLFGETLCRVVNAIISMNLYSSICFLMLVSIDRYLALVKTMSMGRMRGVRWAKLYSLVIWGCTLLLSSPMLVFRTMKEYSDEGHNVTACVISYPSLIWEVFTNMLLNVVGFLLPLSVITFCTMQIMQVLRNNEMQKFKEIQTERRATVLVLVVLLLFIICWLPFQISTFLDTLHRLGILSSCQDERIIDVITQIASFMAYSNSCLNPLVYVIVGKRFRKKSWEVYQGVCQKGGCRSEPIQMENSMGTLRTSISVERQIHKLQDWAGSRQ

Field: example entries. Status: answers known.
- compound: "CCN(CC)CCNC(=O)c1cc(Cl)c(N)cc1OC [METOCLOPRAMIDE]"
  assayed.target: "B2 bradykinin receptor (Homo sapiens, UniProt P30411)"
  AC50: "> 30 µM"
- compound: "CO/N=C(\\C(=O)N[C@@H]1C(=O)N2C(C(=O)[O-])=C(C[N+]3(C)CCCC3)CS[C@H]12)c1csc(N)n1"
  assayed.target: "B2 bradykinin receptor (Homo sapiens, UniProt P30411)"
  AC50: "> 30 µM"
- compound: "CS(=O)(=O)c1ccc([C@@H](O)[C@@H](CO)NC(=O)C(Cl)Cl)cc1 [THIAMPHENICOL]"
  assayed.target: "B2 bradykinin receptor (Homo sapiens, UniProt P30411)"
  AC50: "> 30 µM"

For each entry beneath this line, provide reported AC50.
1. CN1C(=O)COc2c(C(=O)NC3CN4CCC3CC4)cc(Cl)cc21 (centres undefined) [AZASETRON]
2. O=C1CCC(N2C(=O)c3ccccc3C2=O)C(=O)N1 (centres undefined) [THALIDOMIDE]
3. CC(C)[N+](C)(CCC(C(N)=O)(c1ccccc1)c1ccccc1)C(C)C [ISOPROPAMIDE]
4. CC(=O)NS(=O)(=O)c1ccc(N)cc1 [SULFACETAMIDE]
5. CN1C(=O)CC(C)(c2ccccc2)C1=O (centres undefined) [METHSUXIMIDE]
6. CC(C)(Oc1ccc(C2CC2(Cl)Cl)cc1)C(=O)O (centres undefined) [CIPROFIBRATE]

Key:
> 30 µM
> 30 µM
> 10 µM
> 10 µM
> 10 µM
> 30 µM

---

What follows is a record of AC50 for 5-hydroxytryptamine receptor 2B (Homo sapiens).

Field: example entries. Status: answers known.
- compound: "NC(N)=Nc1nc(CSCCC(N)=NS(N)(=O)=O)cs1"
  result: "> 10 µM"
- compound: "Cc1c(C(=O)Nc2ccc(N3C[C@@H](C)O[C@@H](C)C3)nc2)cccc1-c1ccc(OC(F)(F)F)cc1"
  result: "> 10 µM"
- compound: "COC(=O)[C@@H]1CC2=CC(=O)CC[C@]2(C)[C@@]23O[C@@H]2C[C@@]2(C)[C@@H](CC[C@@]24CCC(=O)O4)[C@H]13"
  result: "> 10 µM"
- compound: "CCCCCCCCOc1ccccc1C(=O)Nc1ccc(C(=O)OCC[N+](C)(CC)CC)cc1 [OTILONIUM BROMIDE]"
  result: "0.712 µM"
- compound: "CCc1nn(CCCN2CCN(c3cccc(Cl)c3)CC2)c(=O)n1CCOc1ccccc1"
  result: "0.084 µM"

Proceeding to the next compound to report its AC50.
Exercise: Which measured AC50 value corresponds to CN(C)C(=O)OC1N=C(c2ccccc2)c2cc(Cl)ccc2N(C)C1=O (stereo unspecified) ?
Key: > 10 µM

---

assayed.target: D(3) dopamine receptor (Homo sapiens, UniProt P35462); also: assay procedure not described here
Sequence (P35462 whole entry): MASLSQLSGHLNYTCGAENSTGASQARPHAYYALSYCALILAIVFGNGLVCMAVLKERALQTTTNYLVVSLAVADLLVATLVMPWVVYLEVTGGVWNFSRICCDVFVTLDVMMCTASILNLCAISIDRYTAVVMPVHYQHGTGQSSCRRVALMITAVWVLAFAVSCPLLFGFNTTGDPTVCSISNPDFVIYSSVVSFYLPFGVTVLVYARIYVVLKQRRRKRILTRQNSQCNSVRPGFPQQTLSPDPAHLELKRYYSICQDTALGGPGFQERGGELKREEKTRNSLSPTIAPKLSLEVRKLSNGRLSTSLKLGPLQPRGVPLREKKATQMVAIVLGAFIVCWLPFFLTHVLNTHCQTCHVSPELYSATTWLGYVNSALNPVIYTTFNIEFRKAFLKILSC
attribute.measured: AC50

Field: example entries. Status: answers known.
- molecule: "CC(C(=O)O)c1ccc(N2CC=CC2)c(Cl)c1 (centres undefined) [PIRPROFEN]"
  AC50: "> 30 µM"
- molecule: "C#C[C@]1(O)CC[C@H]2[C@@H]3CCc4cc(O)ccc4[C@H]3CC[C@@]21C [ETHINYL ESTRADIOL]"
  AC50: "> 30 µM"
- molecule: "Cc1ccc(O)c2ncccc12 [TILIQUINOL]"
  AC50: "> 30 µM"
- molecule: "O=C(O)c1cccc(-c2noc(-c3ccccc3F)n2)c1"
  AC50: "> 30 µM"
- molecule: "CC1=NN(c2ccccc2)C(=O)C1 [EDARAVONE]"
  AC50: "10.9 µM"
- molecule: "O=C1c2ccccc2C(=O)C1C(=O)C(c1ccccc1)c1ccccc1 [DIPHENADIONE]"
  AC50: "> 30 µM"
- molecule: "Nc1nc(N)c2nc(-c3ccccc3)c(N)nc2n1"
  AC50: "> 30 µM"
- molecule: "CCCCN(CCCC)CCCOC(=O)c1ccc(N)cc1 [BUTACAINE]"
  AC50: "5.52 µM"

Proceeding to the next molecule to report its AC50.
Exercise: Which measured AC50 value corresponds to C[C@@H]1C[C@H]2[C@@H]3C[C@H](F)C4=CC(=O)C=C[C@]4(C)[C@@]3(F)[C@@H](O)C[C@]2(C)[C@@]1(O)C(=O)COC(=O)C(C)(C)C [FLUMETHASONE PIVALATE] ?
Key: > 30 µM

---

assayed.target: Sodium-dependent serotonin transporter (Homo sapiens); also: assay procedure not described here
Sequence (P31645 whole entry): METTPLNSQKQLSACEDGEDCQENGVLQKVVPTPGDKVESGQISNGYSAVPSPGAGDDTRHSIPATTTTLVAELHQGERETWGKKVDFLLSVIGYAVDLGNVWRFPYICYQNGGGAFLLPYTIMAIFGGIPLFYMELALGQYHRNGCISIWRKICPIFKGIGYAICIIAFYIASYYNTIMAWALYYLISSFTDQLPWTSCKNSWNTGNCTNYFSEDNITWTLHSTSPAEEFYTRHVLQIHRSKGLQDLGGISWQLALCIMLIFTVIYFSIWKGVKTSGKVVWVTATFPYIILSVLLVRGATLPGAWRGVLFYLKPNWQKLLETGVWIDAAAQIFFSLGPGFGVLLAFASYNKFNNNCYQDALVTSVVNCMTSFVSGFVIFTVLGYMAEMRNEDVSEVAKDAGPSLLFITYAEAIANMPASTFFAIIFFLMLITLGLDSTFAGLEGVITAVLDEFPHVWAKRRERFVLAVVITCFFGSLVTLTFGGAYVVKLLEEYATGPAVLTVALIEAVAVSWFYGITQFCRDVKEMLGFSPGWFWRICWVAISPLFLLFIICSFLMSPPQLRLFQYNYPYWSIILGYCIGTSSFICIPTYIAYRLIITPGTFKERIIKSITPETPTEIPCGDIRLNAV
attribute.measured: AC50

- compound: "O=C(CCCCC(=O)Nc1c(I)cc(I)c(C(=O)O)c1I)Nc1c(I)cc(I)c(C(=O)O)c1I [IODIPAMIDE]"
  result: "> 10 µM"
- compound: "CCOC(=O)[C@H](CCc1ccccc1)N[C@H]1CCCN2CCC[C@@H](C(=O)O)N2C1=O"
  result: "> 30 µM"
- compound: "CC(C)(N)Cc1ccc(Cl)cc1"
  result: "4.57 µM"
- compound: "CCC(C(=O)O)c1ccc(CC(C)C)cc1 (stereo not drawn)"
  result: "> 30 µM"
- compound: "CC(C)Cc1ccc(CC(=O)O)cc1"
  result: "> 30 µM"

For each entry beneath this line, provide reported AC50.
1. O=C(OCCN1CCOCC1)c1cccnc1Nc1cccc(C(F)(F)F)c1 [MORNIFLUMATE]
2. COc1ccc(C(=O)NCc2ccc(OCCN(C)C)cc2)cc1OC [ITOPRIDE]
3. CCCCCCCCCCCC[N+](C)(C)CCOc1ccccc1
4. CN1CCCC(n2nc(Cc3ccc(Cl)cc3)c3ccccc3c2=O)CC1 (stereo not drawn)
5. Nc1ncnc2c1ncn2[C@@H]1O[C@H](COP(=O)(O)O)[C@@H](O)[C@H]1O [ADENOSINE PHOSPHATE]

Key:
> 30 µM
> 30 µM
1.7 µM
3.5 µM
> 30 µM

For each entry beneath this line, provide reported AC50.
1. CN1CCN(C(=O)OC2c3nccnc3C(=O)N2c2ccc(Cl)cn2)CC1 (stereo not drawn)
2. CCCCCCC(C)(C)c1cc(O)c2c(c1)OC(C)(C)C1CCC(=O)CC21 (stereo not drawn)
3. CCOc1cc(N)c([N+](=O)[O-])cc1C(=O)NC1CCN(CC2CC=CCC2)CC1 (stereo not drawn) [CINITAPRIDE]
4. COc1ccc2cccc(CCNC(C)=O)c2c1
5. COc1ccc(C(=O)N2CCN(c3ccc4c(c3)CCC(=O)N4)CC2)cc1OC
6. [H]/N=C(/N)c1ccc(NCc2nc3cc(C(=O)N(CCC(=O)O)c4ccccn4)ccc3n2C)cc1
7. NC(CO)C(=O)NNCc1ccc(O)c(O)c1O (stereo not drawn) [BENSERAZIDE]
8. CC(C)C(=O)OCC(=O)[C@@]12O[C@H](C3CCCCC3)O[C@@H]1C[C@H]1[C@@H]3CCC4=CC(=O)C=C[C@]4(C)[C@H]3[C@@H](O)C[C@@]12C [CICLESONIDE]

Key:
> 30 µM
> 30 µM
14 µM
> 10 µM
21 µM
> 30 µM
> 30 µM
> 10 µM

---

Record form. Attribute: AC50. Fill in for each entry.
assayed.target: UniProtKB P35372
Sequence (P35372 whole entry): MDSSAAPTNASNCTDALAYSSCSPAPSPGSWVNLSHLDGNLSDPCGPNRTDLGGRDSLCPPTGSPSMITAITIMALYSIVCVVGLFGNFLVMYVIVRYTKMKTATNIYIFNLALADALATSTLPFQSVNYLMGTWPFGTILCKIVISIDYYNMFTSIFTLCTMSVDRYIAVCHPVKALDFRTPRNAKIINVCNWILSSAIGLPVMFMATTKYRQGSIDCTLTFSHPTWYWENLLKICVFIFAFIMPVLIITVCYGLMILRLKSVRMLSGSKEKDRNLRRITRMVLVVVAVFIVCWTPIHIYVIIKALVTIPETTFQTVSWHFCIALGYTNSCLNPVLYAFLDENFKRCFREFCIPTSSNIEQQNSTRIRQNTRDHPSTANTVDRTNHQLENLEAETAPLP

Field: example entries. Status: answers known.
- compound: "CC[C@@H]1/C=C(\\C)C[C@H](C)C[C@H](OC)[C@H]2O[C@@](O)(C(=O)C(=O)N3CCCC[C@H]3C(=O)O[C@H](/C(C)=C/[C@@H]3CC[C@H](Cl)[C@H](OC)C3)[C@H](C)[C@@H](O)CC1=O)[C@H](C)C[C@@H]2OC [PIMECROLIMUS]"
  attribute.measured: "AC50"
  result: "> 30 µM"
- compound: "O=C(c1ccc(F)c(F)c1Nc1ccc(I)cc1F)N1CC(O)([C@@H]2CCCCN2)C1 [COBIMETINIB]"
  attribute.measured: "AC50"
  result: "0.271 µM"
- compound: "NCc1ccccc1CC(=O)N[C@@H]1C(=O)N2C(C(=O)O)=C(CSc3nnnn3CC(=O)O)CS[C@H]12 [CEFORANIDE]"
  attribute.measured: "AC50"
  result: "> 30 µM"

For each entry beneath this line, provide reported AC50.
1. CC/C=C\C/C=C\C/C=C\C/C=C\C/C=C\CCCC(=O)O [ICOSAPENT]
2. O=C(NC1CCN(CCCCC2(C(=O)NCC(F)(F)F)c3ccccc3-c3ccccc32)CC1)c1ccccc1-c1ccc(C(F)(F)F)cc1 [LOMITAPIDE]
3. CO[C@@]12[C@H](COC(N)=O)C3=C(C(=O)C(C)=C(N)C3=O)N1C[C@@H]1N[C@@H]12 [MITOMYCIN]

Key:
1. > 30 µM
2. 4.02 µM
3. > 30 µM

Exercise: Which measured AC50 value corresponds to Nc1nc2ccc(OC(F)(F)F)cc2s1 [RILUZOLE] ?
Key: > 30 µM
